Consider the following compounds; for each one, report its inhibition.
# target_or_system: Peptidyl-prolyl cis-trans isomerase NIMA-interacting 1 (Homo sapiens, UniProt Q13526)
# Sequence (Q13526 whole entry): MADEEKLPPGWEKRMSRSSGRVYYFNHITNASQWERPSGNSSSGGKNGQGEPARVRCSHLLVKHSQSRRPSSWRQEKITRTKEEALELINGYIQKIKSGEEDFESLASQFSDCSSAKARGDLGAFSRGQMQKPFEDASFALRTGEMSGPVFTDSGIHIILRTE
# protocol: Inhibition of recombinant N-terminal His6-tagged human Pin1 at 10 uM using Suc-Ala-Glu-cis-Pro-Phe-4-nitroanilide as substrate preincubated for 30 mins followed by substrate addition measured for 90 secs
Kindly provide the numeric value in % only, without the unit symbol.

Record COC(=O)[C@@]1(C)C(=O)/C(=C/c2ccccc2C(=O)O)C[C@]2(C)[C@H]3C(=O)C=C4[C@@H]5[C@@H](C)[C@H](C)CC[C@]5(C)CC[C@@]4(C)[C@]3(C)CC[C@@H]12 / Peptidyl-prolyl cis-trans isomerase NIMA-interacting 1 (Homo sapiens, UniProt Q13526), inhibition recorded as 69

Entry C[C@H]1[C@H](C)CC[C@]2(C)CC[C@]3(C)C(=CC(=O)[C@@H]4[C@@]5(C)CC[C@@H](OC(=O)CN6CCNCC6)[C@](C)(C(=O)O)[C@@H]5CC[C@]43C)[C@H]12 , Peptidyl-prolyl cis-trans isomerase NIMA-interacting 1 (Homo sapiens, UniProt Q13526) data, inhibition value: 49

For the compound C[C@H]1[C@H](C)CC[C@]2(C)CC[C@]3(C)C(=CC(=O)[C@@H]4[C@@]5(C)CC[C@@H](OC(=O)CNc6ccccc6)[C@](C)(C(=O)O)[C@@H]5CC[C@]43C)[C@H]12 , the measured inhibition on Peptidyl-prolyl cis-trans isomerase NIMA-interacting 1 (Homo sapiens, UniProt Q13526) was 46

The reported Peptidyl-prolyl cis-trans isomerase NIMA-interacting 1 (Homo sapiens, UniProt Q13526) inhibition of C[C@H]1[C@H](C)CC[C@]2(C)CC[C@]3(C)C(=CC(=O)[C@@H]4[C@@]5(C)C/C(=C\c6ccccc6C(=O)O)C(=O)[C@](C)(C(=O)OCc6ccccc6)[C@@H]5CC[C@]43C)[C@H]12 is 94

Form: item C[C@H]1[C@H](C)CC[C@]2(C)CC[C@]3(C)C(=CC(=O)[C@@H]4[C@@]5(C)C/C(=C\C(=O)O)C(=O)[C@](C)(C(=O)N6CCCCC6)[C@@H]5CC[C@]43C)[C@H]12 ; test system Peptidyl-prolyl cis-trans isomerase NIMA-interacting 1 (Homo sapiens, UniProt Q13526); inhibition: 89

I looked up CCN(CC)CC(=O)O[C@@H]1CC[C@@]2(C)[C@@H](CC[C@]3(C)[C@@H]2C(=O)C=C2[C@@H]4[C@@H](C)[C@H](C)CC[C@]4(C)CC[C@]23C)[C@@]1(C)C(=O)O and its inhibition for Peptidyl-prolyl cis-trans isomerase NIMA-interacting 1 (Homo sapiens, UniProt Q13526) was 58

The value of inhibition recorded for C[C@H]1[C@H](C)CC[C@]2(C)CC[C@]3(C)C(=CC(=O)[C@@H]4[C@@]5(C)C/C(=C\C(=O)O)C(=O)[C@](C)(C(=O)OCc6ccccc6)[C@@H]5CC[C@]43C)[C@H]12 when tested on Peptidyl-prolyl cis-trans isomerase NIMA-interacting 1 (Homo sapiens, UniProt Q13526) reads 97

Lab note: compound C[C@H]1[C@H](C)CC[C@]2(C)CC[C@]3(C)C(=CC(=O)[C@@H]4[C@@]5(C)CC[C@@H](OC(=O)COc6ccc(Oc7ccccc7)cc6)[C@](C)(C(=O)O)[C@@H]5CC[C@]43C)[C@H]12 tested on Peptidyl-prolyl cis-trans isomerase NIMA-interacting 1 (Homo sapiens, UniProt Q13526); recorded inhibition was 90

Entry CC(=O)N1N=C(c2ccc(OCC(=O)O[C@@H]3CC[C@@]4(C)[C@@H](CC[C@]5(C)[C@@H]4C(=O)C=C4[C@@H]6[C@@H](C)[C@H](C)CC[C@]6(C)CC[C@]45C)[C@@]3(C)C(=O)O)cc2)CC1c1ccccc1 (some centres undefined) ; assay system Peptidyl-prolyl cis-trans isomerase NIMA-interacting 1 (Homo sapiens, UniProt Q13526); inhibition recorded at 32

---

# Test system: PC-3
# protocol: Antiproliferative activity against human PC3 cells after 96 hrs by MTT assay
# Type: functional
# condition: PC-3, 96 h
value_kind: log10 GI50 (log10 of the value in µM)
Heads up, the numbers here are log10 of GI50 in µM units.

Bench note, PC-3: entry C[C@H]1[C@H](C)CC[C@]2(C)CC[C@]3(C)C(=CC(=O)[C@@H]4[C@@]5(C)CC[C@@H](OC(=O)COc6ccc(Oc7ccccc7)cc6)[C@](C)(C(=O)O)[C@@H]5CC[C@]43C)[C@H]12 , its log10 GI50 = 1.10

Sample COC(=O)[C@@]1(C)c2onc(C(=O)O)c2C[C@@]2(C)[C@H]1CC[C@]1(C)[C@@H]2C(=O)C=C2[C@@H]3[C@@H](C)[C@H](C)CC[C@]3(C)CC[C@]21C , system: PC-3. Its log10 GI50 is 1.58

Summary line: C[C@H]1[C@H](C)CC[C@]2(C)CC[C@]3(C)C(=CC(=O)[C@@H]4[C@@]5(C)C/C(=C\C(=O)O)C(=O)[C@](C)(C(=O)N6CCOCC6)[C@@H]5CC[C@]43C)[C@H]12 , PC-3, reported log10 GI50 = 0.44

Summary line: C[C@H]1[C@H](C)CC[C@]2(C)CC[C@]3(C)C(=CC(=O)[C@@H]4[C@@]5(C)CC[C@@H](OC(=O)COc6ccccc6)[C@](C)(C(=O)O)[C@@H]5CC[C@]43C)[C@H]12 , PC-3, reported log10 GI50 = 1.27

Form field, log10 GI50 with PC-3, item C[C@H]1[C@H](C)CC[C@]2(C)CC[C@]3(C)C(=CC(=O)[C@@H]4[C@@]5(C)Cc6c(C(=O)O)n[nH]c6[C@](C)(C(=O)OCc6ccccc6)[C@@H]5CC[C@]43C)[C@H]12 : 1.36

Record CC1CCN(CC(=O)O[C@@H]2CC[C@@]3(C)[C@@H](CC[C@]4(C)[C@@H]3C(=O)C=C3[C@@H]5[C@@H](C)[C@H](C)CC[C@]5(C)CC[C@]34C)[C@@]2(C)C(=O)O)CC1 / PC-3, log10 GI50 recorded as 1.19

Record CC(=O)O[C@@H]1CC[C@@]2(C)[C@@H](CC[C@]3(C)[C@@H]2C(=O)C=C2[C@@H]4[C@@H](C)[C@H](C)CC[C@]4(C)CC[C@]23C)[C@@]1(C)C(=O)O / PC-3, log10 GI50 recorded as 1.50

Field log10 GI50 (PC-3), entry C[C@H]1[C@H](C)CC[C@]2(C)CC[C@]3(C)C(=CC(=O)[C@@H]4[C@@]5(C)CC[C@@H](OC(=O)CN6CCN(c7cccc(C(F)(F)F)c7)CC6)[C@](C)(C(=O)O)[C@@H]5CC[C@]43C)[C@H]12 : 1.10

PC-3 assay, compound CC(=O)N1N=C(c2ccc(OCC(=O)O[C@@H]3CC[C@@]4(C)[C@@H](CC[C@]5(C)[C@@H]4C(=O)C=C4[C@@H]6[C@@H](C)[C@H](C)CC[C@]6(C)CC[C@]45C)[C@@]3(C)C(=O)O)cc2)CC1c1ccccc1 (some centres not stated) , recorded log10 GI50 = 0.97

PC-3 assay, compound C[C@H]1[C@H](C)CC[C@]2(C)CC[C@]3(C)C(=CC(=O)[C@@H]4[C@@]5(C)CC[C@@H](OC(=O)CN6CCCCC6)[C@](C)(C(=O)O)[C@@H]5CC[C@]43C)[C@H]12 , recorded log10 GI50 = 1.06

CCN(CC)CC(=O)O[C@@H]1CC[C@@]2(C)[C@@H](CC[C@]3(C)[C@@H]2C(=O)C=C2[C@@H]4[C@@H](C)[C@H](C)CC[C@]4(C)CC[C@]23C)[C@@]1(C)C(=O)O on PC-3 gives log10 GI50 = 1.03

For C[C@H]1[C@H](C)CC[C@]2(C)CC[C@]3(C)C(=CC(=O)[C@@H]4[C@@]5(C)CC[C@@H](OC(=O)CNc6ccccc6)[C@](C)(C(=O)O)[C@@H]5CC[C@]43C)[C@H]12 on PC-3, measured log10 GI50 was 1.08

Record COC(=O)[C@@]1(C)c2[nH]nc(C(=O)O)c2C[C@@]2(C)[C@H]1CC[C@]1(C)[C@@H]2C(=O)C=C2[C@@H]3[C@@H](C)[C@H](C)CC[C@]3(C)CC[C@]21C ; system PC-3; log10 GI50 = 1.58

---

# target_or_system: Peptidyl-prolyl cis-trans isomerase NIMA-interacting 1 (Homo sapiens, UniProt Q13526)
# protocol: Inhibition of recombinant N-terminal His6-tagged human Pin1 at 10 uM using Suc-Ala-Glu-cis-Pro-Phe-4-nitroanilide as substrate preincubated for 30 mins followed by substrate addition measured for 90 secs
value_kind: inhibition (%)
# output: bare number, implied unit %

Please fill in: inhibition reported for C[C@H]1[C@H](C)CC[C@]2(C)CC[C@]3(C)C(=CC(=O)[C@@H]4[C@@]5(C)CC[C@@H](OC(=O)CN6CCN(C)CC6)[C@](C)(C(=O)O)[C@@H]5CC[C@]43C)[C@H]12 = 24

# compound COC(=O)[C@@]1(C)c2onc(C(=O)O)c2C[C@@]2(C)[C@H]1CC[C@]1(C)[C@@H]2C(=O)C=C2[C@@H]3[C@@H](C)[C@H](C)CC[C@]3(C)CC[C@]21C ; its inhibition = 41

Lab note: measured inhibition of CC1CCN(CC(=O)O[C@@H]2CC[C@@]3(C)[C@@H](CC[C@]4(C)[C@@H]3C(=O)C=C3[C@@H]5[C@@H](C)[C@H](C)CC[C@]5(C)CC[C@]34C)[C@@]2(C)C(=O)O)CC1 was 78

Value of measured inhibition for the entry COC(=O)[C@@]1(C)C(=O)/C(=C/C(=O)O)C[C@]2(C)[C@H]3C(=O)C=C4[C@@H]5[C@@H](C)[C@H](C)CC[C@]5(C)CC[C@@]4(C)[C@]3(C)CC[C@@H]12 : 51

# compound C[C@H]1[C@H](C)CC[C@]2(C)CC[C@]3(C)C(=CC(=O)[C@@H]4[C@@]5(C)CC[C@@H](OC(=O)CN(C)c6ccccc6)[C@](C)(C(=O)O)[C@@H]5CC[C@]43C)[C@H]12 ; its inhibition = 94
